Biological target: MERTK (UniProt Q12866)
Sequence (Q12866 whole entry, looked up): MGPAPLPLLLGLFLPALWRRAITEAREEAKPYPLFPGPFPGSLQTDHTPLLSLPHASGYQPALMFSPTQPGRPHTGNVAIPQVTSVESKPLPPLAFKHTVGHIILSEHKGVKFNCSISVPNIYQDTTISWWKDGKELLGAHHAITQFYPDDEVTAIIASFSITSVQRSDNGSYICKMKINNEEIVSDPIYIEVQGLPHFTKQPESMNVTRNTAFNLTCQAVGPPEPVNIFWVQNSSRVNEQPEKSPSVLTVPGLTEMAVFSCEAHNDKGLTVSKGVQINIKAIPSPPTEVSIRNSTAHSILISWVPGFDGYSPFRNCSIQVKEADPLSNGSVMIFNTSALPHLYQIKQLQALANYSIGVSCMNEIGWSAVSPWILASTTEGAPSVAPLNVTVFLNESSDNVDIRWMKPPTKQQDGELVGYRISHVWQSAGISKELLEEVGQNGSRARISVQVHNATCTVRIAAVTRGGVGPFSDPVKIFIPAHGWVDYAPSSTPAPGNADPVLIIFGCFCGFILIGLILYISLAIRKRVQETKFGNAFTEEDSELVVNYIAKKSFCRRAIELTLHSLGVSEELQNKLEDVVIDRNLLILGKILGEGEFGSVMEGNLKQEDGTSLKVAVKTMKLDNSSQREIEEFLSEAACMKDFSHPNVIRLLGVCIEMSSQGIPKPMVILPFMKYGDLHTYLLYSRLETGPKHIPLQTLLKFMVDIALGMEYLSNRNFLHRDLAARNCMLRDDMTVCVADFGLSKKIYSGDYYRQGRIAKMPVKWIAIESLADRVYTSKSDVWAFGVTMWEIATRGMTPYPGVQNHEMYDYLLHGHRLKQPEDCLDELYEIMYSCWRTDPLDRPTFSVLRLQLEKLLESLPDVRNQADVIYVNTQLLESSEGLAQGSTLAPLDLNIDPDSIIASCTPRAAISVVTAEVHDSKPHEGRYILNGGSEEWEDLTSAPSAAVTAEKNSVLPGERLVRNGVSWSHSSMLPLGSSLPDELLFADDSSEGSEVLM
Assay: phosphorylation enrichment, bacterial display (enrichment ratio); higher = better substrate or ligand; peptides without Tyr show the background
Quick reference for phosphorylation enrichment among some sequences
Property Name: phosphorylation enrichment

{"Sequence Code": "TVVGLYQKSSL [MYH7_Y609]", "Reported Value": 0.627}
{"Sequence Code": "WRVISYHVVVW [ATP13A2_Y50_G49S]", "Reported Value": 0.434}
{"Sequence Code": "IGKAGYTDKMV [ENO1_Y236_V240M]", "Reported Value": 0.372}
{"Sequence Code": "SRDTCYLVLAV [AMH_Y195_R194C]", "Reported Value": 0.552}
{"Sequence Code": "LEYNEYFRDLN [HPRT1_Y198_D194E]", "Reported Value": 0.605}
{"Sequence Code": "IVFTSYVLTIL [TAS2R16_Y239_F240V]", "Reported Value": 0.526}
{"Sequence Code": "TWSSSYRSDRL [CRYBB1_Y131]", "Reported Value": 0.448}
{"Sequence Code": "FQKNVYSEELR [LMNA_Y211_I210V]", "Reported Value": 0.518}
{"Sequence Code": "RHLQEYQDLLN [GFAP_Y349]", "Reported Value": 0.392}
{"Sequence Code": "AGIVDYNIIGW [MYH7_Y588]", "Reported Value": 0.349}
{"Sequence Code": "CTTIHKNFMCN [TP53_Y234_Y234K_YF]", "Reported Value": 0.42}
{"Sequence Code": "HIKHNYECLVF [XRCC5_Y416_YF]", "Reported Value": 0.382}
{"Sequence Code": "DQLVKHGVNPG [TMPO_Y127_Y127H]", "Reported Value": 0.344}
{"Sequence Code": "VEGISYDFIPT [CBS_Y308_G307S]", "Reported Value": 2.96}
{"Sequence Code": "IVVVPYEPPEV [TP53_Y220_S215I]", "Reported Value": 0.448}
{"Sequence Code": "AALRLYHVSDS [VIL1_Y256_K254R]", "Reported Value": 0.478}

====

System: Fer (mouse)
Test: phosphorylation enrichment, bacterial display (enrichment ratio); higher = better substrate or ligand; peptides without Tyr show the background
Binary call on phosphorylation enrichment: Y from 0.6 upward, N beneath that.

{"Sequence Code": "IDSTPYGQWYE [RPS8_Y109_R110G]", "Qualitative Label": "Y"}
{"Sequence Code": "YIRRDYEACKA [BBS4_Y48_K46R]", "Qualitative Label": "N"}
{"Sequence Code": "KPLMPCMRFSR [SMARCE1_Y73_Y73C_YF]", "Qualitative Label": "N"}
{"Sequence Code": "PNEAVYTKMMT [G6PD_Y401]", "Qualitative Label": "Y"}
{"Sequence Code": "ATARPYSPFII [LRP5_Y1528_R1529S_YF]", "Qualitative Label": "Y"}
{"Sequence Code": "ERIEFYELNKK [PMM2_Y145_D148N]", "Qualitative Label": "Y"}

====

Quick reference for phosphorylation enrichment among some sequences
Target: Fes (UniProt P07332)
Sequence (P07332 whole entry, looked up): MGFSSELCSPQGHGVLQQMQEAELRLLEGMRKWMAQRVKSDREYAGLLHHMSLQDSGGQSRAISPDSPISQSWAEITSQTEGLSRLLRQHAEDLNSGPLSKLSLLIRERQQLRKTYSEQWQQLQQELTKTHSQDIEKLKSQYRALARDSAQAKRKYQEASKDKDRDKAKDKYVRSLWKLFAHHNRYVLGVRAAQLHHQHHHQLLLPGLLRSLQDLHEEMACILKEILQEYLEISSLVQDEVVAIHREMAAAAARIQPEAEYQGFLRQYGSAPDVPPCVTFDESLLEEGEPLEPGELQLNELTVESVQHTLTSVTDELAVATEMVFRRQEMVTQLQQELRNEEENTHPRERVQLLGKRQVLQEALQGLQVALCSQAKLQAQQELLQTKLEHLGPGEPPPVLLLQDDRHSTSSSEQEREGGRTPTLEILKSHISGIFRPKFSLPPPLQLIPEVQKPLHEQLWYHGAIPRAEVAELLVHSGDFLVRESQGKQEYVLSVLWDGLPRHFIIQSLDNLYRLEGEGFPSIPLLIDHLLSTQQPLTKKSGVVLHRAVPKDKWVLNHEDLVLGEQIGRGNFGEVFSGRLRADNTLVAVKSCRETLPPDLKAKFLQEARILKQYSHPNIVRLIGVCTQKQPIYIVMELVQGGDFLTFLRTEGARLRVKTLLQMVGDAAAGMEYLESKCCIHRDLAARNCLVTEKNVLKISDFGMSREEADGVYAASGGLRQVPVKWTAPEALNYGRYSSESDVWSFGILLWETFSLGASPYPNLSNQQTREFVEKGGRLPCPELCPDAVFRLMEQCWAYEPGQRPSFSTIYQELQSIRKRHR
Test: phosphorylation enrichment, bacterial display (enrichment ratio); higher = better substrate or ligand; peptides without Tyr show the background
Property Name: phosphorylation enrichment

{"Sequence Code": "LEISPYMLSGR [LRRK2_Y1718]", "Property Name": "phosphorylation enrichment", "Reported Value": 1.28}
{"Sequence Code": "LHSEAYLKYNE [PBRM1_Y1610_I1614N]", "Property Name": "phosphorylation enrichment", "Reported Value": 0.757}
{"Sequence Code": "PLLEYYRDIFT [CDAN1_Y713]", "Property Name": "phosphorylation enrichment", "Reported Value": 1.81}
{"Sequence Code": "GVIRHSVVCST [BTK_Y334_Y334S]", "Property Name": "phosphorylation enrichment", "Reported Value": 0.82}
{"Sequence Code": "MSNFAYVKREV [SCN1A_Y1694]", "Property Name": "phosphorylation enrichment", "Reported Value": 0.986}
{"Sequence Code": "SDYSRYARTSI [TERT_Y949_S948R]", "Property Name": "phosphorylation enrichment", "Reported Value": 0.581}

====

Quick reference for SH2 binding enrichment among some sequences
Target: SHP2-C SH2
Assay: SH2 binding enrichment of the phosphorylated peptide, bacterial display (enrichment ratio); higher = better substrate or ligand; peptides without Tyr show the background

{"Sequence Code": "PVDGEYFTLQI [TP53_Y327_L323V]", "SH2 binding enrichment": 0.744}
{"Sequence Code": "RILDVYIFLGP [GAA_Y340_G335R]", "SH2 binding enrichment": 0.595}
{"Sequence Code": "LSDGPYSNSYE [EPOR_Y485_P488S]", "SH2 binding enrichment": 0.523}
{"Sequence Code": "QAEELYFGKMG [YES1_Y159_W158L]", "SH2 binding enrichment": 0.455}
{"Sequence Code": "AFQGKYTPSGQ [ALDOA_Y343_C339Y_YF]", "SH2 binding enrichment": 0.803}
{"Sequence Code": "LITSVYGCSRQ [TMPRSS6_Y290]", "SH2 binding enrichment": 0.628}
{"Sequence Code": "CGTPDYIAPEI [PRKCG_Y521]", "SH2 binding enrichment": 0.699}
{"Sequence Code": "GMRHGHGVRQS [JPH2_Y141_Y141H]", "SH2 binding enrichment": 1.31}
{"Sequence Code": "SGDVQYRSSVR [FREM2_Y2158_T2153S]", "SH2 binding enrichment": 0.883}
{"Sequence Code": "PVQAAYKKVVA [HBB_Y131_Q132K]", "SH2 binding enrichment": 0.613}
{"Sequence Code": "GMTLSYLFREL [NDUFS8_Y74_P79L]", "SH2 binding enrichment": 1.47}
{"Sequence Code": "GYKVRYATWSI [FGFR1_Y210]", "SH2 binding enrichment": 2.01}
{"Sequence Code": "MCDSHYLESRS [CLK1_Y56]", "SH2 binding enrichment": 0.719}
{"Sequence Code": "ALAAPYVLFPS [CEFIP_Y1332_G1337S_YF]", "SH2 binding enrichment": 0.816}

====

Target: SHP2-C SH2;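 also: peptide library displayed on the E. coli surface as eCPX fusions, selected cells deep-sequenced, score is each peptide's frequency after selection divided by its frequency in the input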
Test: SH2 binding enrichment of the phosphorylated peptide, bacterial display (enrichment ratio); higher = better substrate or ligand; peptides without Tyr show the background
Property Name: SH2 binding enrichment

{"Sequence Code": "PESIMYWKFTT [NTRK3_Y744_R745W]", "Study Target": "SHP2-C SH2", "Reported Value": 1.21}
{"Sequence Code": "QQLQGYVPSNY [FRK_Y99_I100V]", "Study Target": "SHP2-C SH2", "Reported Value": 0.604}
{"Sequence Code": "PFTRNYFVRAV [CYBA_Y87_YF]", "Study Target": "SHP2-C SH2", "Reported Value": 0.327}
{"Sequence Code": "LYSNAYLSDLA [ALDH1A1_Y119_N121S]", "Study Target": "SHP2-C SH2", "Reported Value": 0.782}
{"Sequence Code": "AEVIWYKGDEV", "Study Target": "SHP2-C SH2", "Reported Value": 0.684}
{"Sequence Code": "DGTGHYLCNAC [GATA5_Y208]", "Study Target": "SHP2-C SH2", "Reported Value": 0.658}
{"Sequence Code": "HGEAYYSEVKA [PAK5_Y182_P187A]", "Study Target": "SHP2-C SH2", "Reported Value": 0.897}
{"Sequence Code": "CPPKVYELMRA [ABL2_Y515]", "Study Target": "SHP2-C SH2", "Reported Value": 0.693}
{"Sequence Code": "ISSLCYELLEE [TRPC6_Y896_R895C]", "Study Target": "SHP2-C SH2", "Reported Value": 0.769}
{"Sequence Code": "KLFIEYPTGSG [IRF2BPL_Y423]", "Study Target": "SHP2-C SH2", "Reported Value": 1}
{"Sequence Code": "EFGRRYGFSCQ [CCDC93_Y209_R213C_YF]", "Study Target": "SHP2-C SH2", "Reported Value": 0.635}
{"Sequence Code": "AVISVYDLVAV [PSEN1_Y256]", "Study Target": "SHP2-C SH2", "Reported Value": 1.03}

====

Test system: c-Abl (mouse)
Test: phosphorylation enrichment, bacterial display (enrichment ratio); higher = better substrate or ligand; peptides without Tyr show the background

{"Sequence Code": "LHQSTYQCFDV [SLC7A14_Y693_R695C_YF]", "phosphorylation enrichment": 1.05}
{"Sequence Code": "AEFGLYRAMVR [VSX2_Y222_G223R_YF]", "phosphorylation enrichment": 1.48}
{"Sequence Code": "SPPPAFTPMSG [ERBB4_Y1056_Y1056F]", "phosphorylation enrichment": 0.45}
{"Sequence Code": "HSHTRYERNIE [F2_Y434_R431H]", "phosphorylation enrichment": 0.694}
{"Sequence Code": "GASWRYGSGVS [NEU1_Y242]", "phosphorylation enrichment": 0.506}
{"Sequence Code": "NPQKSYLIRLF [WAS_Y83_F84L_YF]", "phosphorylation enrichment": 0.523}
{"Sequence Code": "KKRRSYGNSSD [SELENOK_Y52]", "phosphorylation enrichment": 0.479}
{"Sequence Code": "PADQAYSWFQH [NDST1_Y711_R709Q_YF]", "phosphorylation enrichment": 0.58}
{"Sequence Code": "RMGNLYDIDED [GRIN2A_Y1246]", "phosphorylation enrichment": 1.11}
{"Sequence Code": "ERIEFYELDKK [PMM2_Y145]", "phosphorylation enrichment": 0.771}
{"Sequence Code": "GLAELYEFQKK [CKAP5_Y1854_K1857Q_YF]", "phosphorylation enrichment": 0.428}
{"Sequence Code": "QMRLRYLAAEE [CEP120_Y884]", "phosphorylation enrichment": 0.916}
{"Sequence Code": "PVDVAYRHGYF [PLEC_Y2967_R2969H]", "phosphorylation enrichment": 1.4}
{"Sequence Code": "QEMMEYRHQIQ [DES_Y324]", "phosphorylation enrichment": 1.86}
{"Sequence Code": "AFSTVYKGLWI [EGFR_Y727_G724S]", "phosphorylation enrichment": 0.814}

The reported measurements were obtained from the supplement of paper PMC10065799.
